# Measurement target: lysosomal acid α-glucosidase (GAA) (Homo sapiens, UniProt P10253)
# Construct: purchased Genzyme
# Assay text: Lysosomal acid α-glucosidase (GAA) inhibition assay, Myozyme as enzyme source, 4-methylumbelliferyl-α-D-glucopyranoside substrate
# Type: biochemical
# Measurement context: ratio of IC50 ER α-glucosidase II / IC50 GAA
Measured quantity: Selectivity Index ER α-Glcase II/GAA

P: CCC[C@@H]1N[C@@H](CO)[C@H](O)[C@H]1O
Q: CCCC[C@@H]1N[C@@H](CO)[C@H](O)[C@H]1O
*Q* Which of the two gives a bigger number for Selectivity Index ER α-Glcase II/GAA: P or Q ? Lab note: record the label of whichever item you select.
*A* Q
(Q: 142.5, P: 55.8)

###

Test system ER α-glucosidase II (Rattus norvegicus, UniProt A0A8I6GFL3), IC50 listed for each of the compounds.
Measured quantity: IC50 (µM)

Example cases with answers are listed next.
CCCCC[C@@H]1N[C@@H](CO)[C@H](O)[C@H]1O [α-1-C-Pentyl-LAB]; 180
OC[C@H]1NC[C@H](O)[C@@H](O)[C@@H]1O [DNJ, 1,5-Dideoxy-1,5-imino-D-glucitol, reference compound]; 8
CCCC[C@@H]1N[C@@H](CO)[C@H](O)[C@H]1O [α-1-C-Butyl-LAB]; 228
CCCCCCC[C@@H]1N[C@@H](CO)[C@H](O)[C@H]1O [α-1-C-Heptyl-LAB]; 74
OC[C@@H]1NC[C@H](O)[C@H]1O [LAB, 1,4-Dideoxy-1,4-imino-L-arabinitol]; 2.8

A: CCCCCC[C@@H]1N[C@@H](CO)[C@H](O)[C@H]1O [α-1-C-Hexyl-LAB]
B: CCC[C@@H]1N[C@@H](CO)[C@H](O)[C@H]1O [α-1-C-Propyl-LAB]
*Q* A or B : whose IC50 is greater? Reply briefly: the label of your chosen item.
*A* B
(B: 413 µM, A: 100 µM)

###

# Measurement target: lysosomal acid α-glucosidase (GAA) (Homo sapiens, UniProt P10253)
# Construct: purchased Genzyme
# Assay text: Lysosomal acid α-glucosidase (GAA) inhibition assay, Myozyme as enzyme source, 4-methylumbelliferyl-α-D-glucopyranoside substrate
# Type: biochemical
# Measurement context: Myozyme, pH 6.8, 37 °C 30 min
Measured quantity: pIC50
Please keep in mind that pIC50 is minus log10 of the molar concentration; only the number is needed.

*Q* Quick check: pIC50 of CCCCCC[C@@H]1N[C@@H](CO)[C@H](O)[C@H]1O ?
*A* 6.15

###

# Measurement target: lysosomal acid α-glucosidase (GAA) (Homo sapiens)
# Construct: purchased Genzyme
# Assay text: Lysosomal acid α-glucosidase (GAA) inhibition assay, Myozyme as enzyme source, 4-methylumbelliferyl-α-D-glucopyranoside substrate
# Type: biochemical
# Measurement context: ratio of IC50 ER α-glucosidase II / IC50 GAA
Measured quantity: Selectivity Index ER α-Glcase II/GAA

Completed entries (count: 3):
C[C@@H]1N[C@@H](CO)[C@H](O)[C@H]1O [α-1-C-Methyl-LAB]; 13.0
CCCCC[C@@H]1N[C@@H](CO)[C@H](O)[C@H]1O [α-1-C-Pentyl-LAB]; 163.6
CCCCCC[C@@H]1N[C@@H](CO)[C@H](O)[C@H]1O [α-1-C-Hexyl-LAB]; 140.8

a: CCCCCCC[C@@H]1N[C@@H](CO)[C@H](O)[C@H]1O [α-1-C-Heptyl-LAB]
b: CC[C@@H]1N[C@@H](CO)[C@H](O)[C@H]1O [α-1-C-Ethyl-LAB]
*Q* In the pair a and b , the larger recorded Selectivity Index ER α-Glcase II/GAA belongs to which? Identify your pick by its label.
*A* a
